# measuredTarget: A*02:07
# protocolDetails: SPR; low fitting confidence
pKd: −log10 of the molar value.
Listed below: pKd values for each entry.

binder | pKd
AS179732 VL1g1VH1g1-N73Y (Fc fusion) QSVLTQPPSASGTPGQRVTISCSGSSSNIGGNYVNWYQQLPGTAPKLLIYDNSNRASGVPDRFSGSKSGTSASLAISGLQSEDEADYYCASWDDSLSGAVFGGGTKLTVLGGGGSGGGGSGGGGSEVQLVESGGGLVQPGGSLRLSCAASGFTFLNYAMSWVRQAPGKGLEWVSSNSGAGSTYYADSVKGRFTISRDYSKNTLYLQMNSLRAEDTAVYYCAKGTNVGSWSSLHYWGQGTLVTVSS | < 5.62
AS170036 VL1VH1 (Fc fusion) QSALTQPRSVSGSPGQSVTISCAGTSSDVGSENYVSWYQQHPGKAPKLMIYQVNKRASGVPDRFSGSKSGNTASLTISGLQAEDEADYYCASYRSSDHNIVFGGGTKLTVLGGGGSGGGGSGGGGSEVQLVESGGGLVQPGGSLRLSCAASGFTFSSYAMSWVRQAPGKGLEWVSTINSGTGSPYYADSVKGRFTISRDNSKNTLYLQMNSLRAEDTAVYYCAKNFFDGSWFLGPPAMDYWGQGTLVTVSS | < 5.92
AS170036 (Fc fusion) QLVLTQPSSVSGTPGQTVTISCAGTSSDVGSENYVSWYRQLPGTAPKLLIYQVNKRASGIADRFSGSKSGNTASMTISGLQSADEADYYCASYRSSDHNIVFGGGTHLTVLGGGGSGGGGSGGGGSAVQLVESGGGLVQPGGSLRLSCTASGFTFSSYAMSWVRQAPGKGLEWVSTINSGTGSPYYADSVKGRFTISRDNAKNTLYLQLNSLKTEDTAMYYCAKNFFDGSWFLGPPAMDYWGKGTLVTISS | < 5.32

Let us examine a further case.
Can you share its pKd? I mean this binder: AS179723 VL1g1VH1g1-N73Y (Fc fusion) QSVLTQPPSASGTPGQRVTISCSGSSNNIGGNYVNWYQQLPGTAPKLLIYDNKNRPSGVPDRFSGSKSGTSASLAISGLQSEDEADYYCASWDDSLSAVVFGGGTKLTVLGGGGSGGGGSGGGGSEVQLVESGGGLVQPGGSLRLSCAASGFTFLNYAMSWVRQAPGKGLEWVSSNSGAGSTYYADSVKGRFTISRDYSKNTLYLQMNSLRAEDTAVYYCAKGTNVGSWSSLHYWGQGTLVTVSS
< 5.77

Data credit: patent US20240279318A1
